Data credit: PubChem BioAssay (NCI)

# Procedure Summary: NCI Yeast Anticancer Drug Screen. Data for the sgs1 mgt1 strain (AID 161);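 further: 0% = growth of cultures given vehicle only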
# Experimental Setup: S. cerevisiae sgs1 mgt1 strain, at 50.0 µM, active compounds read high
The panel holds about 79,000 compounds, 15% with a hit somewhere; the sample as a whole holds those more often.

Compound | growth inhibition (%)
COc1ccccc1CNCCCCCCNCCSSCCNCCCCCCNCc1ccccc1OC | 7.4
COc1cc(Nc2cc(Cl)cc(Cl)c2)nc(N)n1 | 6.5
CCN(CC)C(=O)CCC1(C)OCCO1 | -25.3
Nc1c(Cl)cc(Cl)cc1C(=O)O | 0.35
CCOC(=O)CN | 2.15
CC(=O)N1c2ccccc2C2=NN(C)C(=N)SC21 (stereo not drawn) | -27.3
CC(=O)Nc1ccc(S(=O)(=O)/C(=C\c2ccc(Cl)o2)c2ccc([N+](=O)[O-])o2)cc1 | 92.9
O=C1C=C2CCC(c3ccc(O)cc3)CC2CC1 (stereo not drawn) | -1.6
COc1ccc2[nH]cc(C(=O)C(=O)NC34CC5CC(CC(C5)C3)C4)c2c1 | -5.2
Clc1ccccc1CSc1cc(SCc2ccccc2Cl)nc(SCc2ccccc2Cl)n1 | -2.25
Cc1cc(Br)ccc1Br | -1.75
O=C(O)c1ccc(S(=O)(=O)N=Nc2c(O)[nH]c3ccccc23)cc1 | -35
CC(=O)OCCc1cccc(C)c1 | -4.8
CC(C)=Cc1ccccc1C1(C)C(c2ccccc2)=C1c1ccccc1 | -9.25
CCOP(=O)(OCC)C(F)(F)Cc1cnc(C)c2c1COC(C)(C)O2 | -32.5
CC(C)N(C(=O)C12C3C4C1C1C2C3C41C(=O)C(C)(C)C)C(C)C (stereo not drawn) | 52
CC(C)c1ccc(Cc2ccc(C(C)C)c(NC(=O)C(=O)Cc3cnc4ccccc4n3)c2C(C)C)c(C(C)C)c1NC(=O)C(=O)Cc1cnc2ccccc2n1 | -24.9
CN=NNc1ccc(C#N)cc1 | -1.85
O=C1CCCCCCCCCCC1 | -17.6
O=S(=O)(c1cccc(C(F)(F)F)c1)N(CCCCN(S(=O)(=O)c1cccc(C(F)(F)F)c1)S(=O)(=O)c1cccc(C(F)(F)F)c1)S(=O)(=O)c1cccc(C(F)(F)F)c1 | -20.7
NS(=O)(=O)c1ccc(Nc2c3ccccc3nc3cc(Cl)ccc23)cc1 | 6.9
Cn1c(N2CCCC2)c(C=O)c(=O)n(C)c1=O | 8.6
CN(C)c1ccc(-c2c(C#N)c(N)[nH]c(=S)c2C#N)cc1 | 4.7
